System: P94_40
protocol summary: qHTS profiling for inhibitors of Plasmodium falciparum proliferation (AID 504749); further: nearly all actives have a fitted effect of over 60% in size
recorded conditions: P. falciparum in erythrocytes, SYBR Green DNA, 72 h; series mostly up to 28.7 µM
Procedure: NIH National Institute of Allergy and Infectious Diseases [NIAID] NIH Chemical Genomics Center [NCGC] […] Because mature erythrocytes lack DNA, only Plasmodium-derived DNA is detected. NCGC Assay Protocol Summary: The SYBR Green viability assay was adapted from a method described previously (Plouffe et al., 2008). […] The following morning, fluorescence intensity at 485(14) nm excitation and 535(25) nm emission wavelengths was measured on an EnVision (Perkin Elmer) plate reader. […]
Records with an inconclusive call do not appear. Active and inactive are the calls of the source. The call rests on the fitted dose curve; in most records, active means well fitted inhibition curve with a large enough effect; inconclusive means small, poorly fitted or top-dose-only effect; inactive means flat fitted curve, though single readings scatter.
property: outcome

For O=C(O)c1cc(=O)[nH]c(=O)[nH]1 , write its outcome.
inactive

For CN1CCCC(n2nc(Cc3ccc(Cl)cc3)c3ccccc3c2=O)CC1 (configuration not stated) , write its outcome.
inactive

For CCOCC(O)COc1ccc(NC(=O)CC[S+](C)C)cc1 (configuration not stated) , write its outcome.
inactive

For CCN(C)C(=O)Oc1cccc([C@H](C)N(C)C)c1 , write its outcome.
inactive

For CN(C)CCc1c[nH]c2ccc(CS(=O)(=O)N3CCCC3)cc12 , write its outcome.
inactive

***
For CC(C)Cn1cnc2c(N)nc3ccccc3c21 , write its outcome.
inactive

For CCC(C)(C)c1ccc(CC(C)CN2C[C@@H](C)O[C@@H](C)C2)cc1 (some centres not stated) , write its outcome.
inactive

For COc1nc(N)nc2c1ncn2[C@@H]1O[C@H](CO)[C@@H](O)[C@@H]1O , write its outcome.
inactive

For CCCc1cc(C(N)=S)ccn1 , write its outcome.
inactive

For CN(CCOc1ccc(CC2SC(=O)NC2=O)cc1)c1ccccn1 (configuration not stated) , write its outcome.
inactive

For NCCCC(O)(P(=O)(O)O)P(=O)(O)O , write its outcome.
inactive

For CNS(=O)(=O)Cc1ccc2[nH]cc(CCN(C)C)c2c1 , write its outcome.
inactive

====

Test system: astro
protocol summary: Drug repurposing screens with cells derived from glioblastoma tumor samples (AID 1345199); further: nearly all actives have a fitted effect of over 40% in size
recorded conditions: viability, ATP luminescence, 48 h; series mostly up to 45.9 µM
Records with an inconclusive call do not appear. The source made the active and inactive calls. The call rests on the fitted dose curve; in most records, active means well fitted inhibition curve with a large enough effect; inconclusive means small, poorly fitted or top-dose-only effect; inactive means flat fitted curve, though single readings scatter.
Parameter call: string, one of active, inactive

Hello, I am checking results. What call was entered for C[C@@H]1CN(c2c(F)c(N)c3c(=O)c(C(=O)O)cn(C4CC4)c3c2F)C[C@H](C)N1 ?
inactive

Hello, I am checking results. What call was entered for Nc1nc(N)nc(-c2cc(Cl)ccc2Cl)n1 ?
inactive

Hello, I am checking results. What call was entered for CC(=O)CC(c1ccccc1)c1c(O)c2ccccc2oc1=O (stereo not drawn) ?
inactive

Hello, I am checking results. What call was entered for CN(C)c1ccc(C(=C2C=CC(=[N+](C)C)C=C2)c2ccc(N(C)C)cc2)cc1 ?
active

Hello, I am checking results. What call was entered for Cc1cccc(N(C)C(=S)Oc2ccc3ccccc3c2)c1 ?
inactive

Hello, I am checking results. What call was entered for CCOC(=O)c1ccc(OC(=O)CCCCCN=C(N)N)cc1 ?
inactive

Hello, I am checking results. What call was entered for CN(C)CCc1c[nH]c2ccc(C[C@H]3COC(=O)N3)cc12 ?
inactive

Hello, I am checking results. What call was entered for Clc1ccccc1CN1CCc2sccc2C1 ?
inactive
